- System: CCRF-CEM
- method: Growth inhibition of human CCRF-CEM cells at 10 uM after 48 hrs
- Format: functional
- condition-parameters: read-out: GI
outcome-measure: inhibition of growth at 10 µM (%)

chem_smiles=Cc1ccc2nc(Sc3sc(N)nc3C)n(Cc3ccccc3)c(=O)c2c1 experimental_target=CCRF-CEM outcome_measure="inhibition of growth at 10 µM" unit_name=% numeric_value=14.9
chem_smiles=COc1cc2nc(Sc3nnc(N)s3)n(-c3ccc(Oc4ccccc4)cc3)c(=O)c2cc1OC experimental_target=CCRF-CEM outcome_measure="inhibition of growth at 10 µM" unit_name=% numeric_value=11.2
chem_smiles=COc1cc2nc(Sc3sc(N)nc3C)n(-c3ccc(Oc4ccccc4)cc3)c(=O)c2cc1OC experimental_target=CCRF-CEM outcome_measure="inhibition of growth at 10 µM" unit_name=% numeric_value=35.5
chem_smiles=Cc1nc(N)sc1Sc1nc2ccc(Cl)cc2c(=O)n1-c1ccc(Oc2ccccc2)cc1 experimental_target=CCRF-CEM outcome_measure="inhibition of growth at 10 µM" unit_name=% numeric_value=58.5
